- TGT: UniProt:Q962Y6
- Sequence (Q962Y6 1-598): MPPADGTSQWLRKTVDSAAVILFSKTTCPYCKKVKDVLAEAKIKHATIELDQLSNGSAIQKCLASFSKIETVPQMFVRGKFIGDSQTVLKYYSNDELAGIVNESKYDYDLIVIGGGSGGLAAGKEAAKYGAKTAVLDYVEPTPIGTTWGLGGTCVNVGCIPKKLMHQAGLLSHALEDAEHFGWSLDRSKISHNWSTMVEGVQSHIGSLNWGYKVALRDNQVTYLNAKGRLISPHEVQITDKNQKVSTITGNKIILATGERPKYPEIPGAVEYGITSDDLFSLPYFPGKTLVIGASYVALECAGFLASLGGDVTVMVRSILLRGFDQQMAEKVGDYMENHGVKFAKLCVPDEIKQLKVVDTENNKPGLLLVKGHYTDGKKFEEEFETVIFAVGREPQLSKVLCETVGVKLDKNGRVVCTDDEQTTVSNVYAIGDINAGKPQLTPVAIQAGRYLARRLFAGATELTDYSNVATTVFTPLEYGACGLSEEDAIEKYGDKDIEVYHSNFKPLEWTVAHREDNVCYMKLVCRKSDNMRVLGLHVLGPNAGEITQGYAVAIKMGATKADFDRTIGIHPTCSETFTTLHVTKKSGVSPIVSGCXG
pIC50: −log10 of the molar value.
REPORTED_ENDPOINT: pIC50

Query string: Give the reported value of pIC50 for this record: N#Cc1c(-c2ccccc2)no[n+]1[O-]
Result string: 5.10 to 5.40
